B1: Azoarcus group I ribozyme (parent)
chain: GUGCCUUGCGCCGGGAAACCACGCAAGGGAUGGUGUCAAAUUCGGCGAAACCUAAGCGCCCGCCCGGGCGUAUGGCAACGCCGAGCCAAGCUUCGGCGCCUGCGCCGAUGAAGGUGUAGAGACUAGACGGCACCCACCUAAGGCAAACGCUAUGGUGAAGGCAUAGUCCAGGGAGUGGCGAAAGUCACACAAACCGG

Variants of: B1
Assay: reverse-splicing fitness (ratio to wild type); higher = more active; in vitro selection; Mg2+ level not given
Entry class follows reverse-splicing fitness: band A: < 0.006; band B: ≥ 0.006 and < 0.01; band C: ≥ 0.01

Residue Change	Group
C82U A111U A120U A145G C150A C169A U176A	band B
A111C A120C C169A U176G	band B
C82G A111G A120C A145C C150G C169U U176G	band A
C82G A111C A120G A145G C150G C169A U176C	band C
A111C A120G A145G C150U C169A	band C

Note: place this variant into its band. Item: C82A A111U A145C C169U U176G
band A

Which category does the recorded reverse-splicing fitness put C82U A120C C150G C169A in?
band B

Category lookup for the variant C82U A111G A120C A145C C150G C169A U176C
band A

Assign a bin to C82G A111U A120C A145U C150A C169U U176C
band C

Tag the class for C82A A120G C150G C169U U176C
band C

Band of A111C A120G A145C C150A U176C ?
band C

Place this variant in its band: C82A A111U A120U A145G C150U C169U U176C
band A
